Some molecules, each annotated with its measured Emax.
tested on: IL-6 in A549 cells stimulated with IL-1β; assay: A549 Cell Assay to Measure Inflammation Markers (inhibition of IL-1β-induced IL-6); assay type: cell-based; conditions: Homo sapiens, A549, A549 Cell Assay to Measure Inflammation Markers; intrinsic activity, Emax class ranges
Measure: Emax

[[record]]
molecule = "Cc1cc(C(=O)Nc2cccnc2C)ccc1[C@@H]1SC[C@@H](C)Nc2c1c(-c1ccncn1)nn2C (single isomer, unassigned) [M.57]"
measurement = "> 70%"

[[record]]
molecule = "CCn1nc(-c2ccccn2)c2c1NCCSC2c1ccc(C(=O)Nc2n[nH]cc2C#N)cc1C (stereo not shown) [S.8]"
measurement = "> 50%"

[[record]]
molecule = "Cc1nn(C)c2c1C(c1ccc(Cl)cc1)SC(CCO)CN2 (stereo not shown) [D.68]"
measurement = "< 50%"

[[record]]
molecule = "CCn1nc(-c2ccccn2)c2c1NCCSC2c1ccc(C#N)cc1C (single isomer, unassigned) [M.22]"
measurement = "> 70%"

[[record]]
molecule = "Cc1cc(C#N)ccc1C1SC(C)(C)CNc2c1c(C)nn2C (stereo not shown) [G.6]"
measurement = "< 50%"

[[record]]
molecule = "Cc1cc(C#N)ccc1[C@H]1S[C@@H](C)CNc2c1c(C1CC1)nn2C (racemic) [G.3]"
measurement = "< 50%"

[[record]]
molecule = "Cc1cc(Cl)ccc1[C@H]1SC(C)(C)CNc2c1c(C1CC1)nn2C"
measurement = "> 60%"

[[record]]
molecule = "Cc1cc(C(=O)Nc2cccnc2C)ccc1C1SCC(C)Nc2c1c(-c1ccccn1)nn2C (stereo not shown) [H.6]"
measurement = "> 70%"

[[record]]
molecule = "Cn1nc(-c2nccs2)c2c1NCCSC2c1ccc(Cl)cc1Cl (stereo not shown) [D.16]"
measurement = "< 50%"

[[record]]
molecule = "Cn1nc(-c2ccccn2)c2c1NCCSC2Cc1ccccc1 (stereo not shown) [D.36]"
measurement = "< 50%"

[[record]]
molecule = "CCn1nc(-c2ccccn2)c2c1NCCSC2c1ccc(C(=O)Nc2cccnc2C)cc1C(F)(F)F (single isomer, unassigned) [M.68]"
measurement = "> 70%"

[[record]]
molecule = "Cn1nc(-c2ccccn2)c2c1NCC[S+]([O-])C2c1ccc(Cl)cc1Cl (stereo not shown) [L.2]"
measurement = "< 50%"

[[record]]
molecule = "Cn1nc(C2CCCC2)c2c1NCC(C)(C)SC2c1ccc(Cl)cc1Cl (stereo not shown) [D.79]"
measurement = "< 50%"

[[record]]
molecule = "Cn1nc(C2CC2)c2c1NCC(C)(C)SC2c1ccc(Cl)cc1C(F)(F)F (stereo not shown) [D.48]"
measurement = "< 50%"

[[record]]
molecule = "Cc1cc(Cl)ccc1[C@@H]1S[C@@H](CCO)CNc2c1c(-c1ccccn1)nn2C (single isomer, unassigned) [M.13]"
measurement = "< 50%"

[[record]]
molecule = "Cc1cc(C#N)ccc1[C@@H]1S[C@@H](C)CNc2c1c(C)nn2C [G.2]"
measurement = "< 50%"

[[record]]
molecule = "CC(C)Cc1nn(C)c2c1C(c1ccc(Cl)cc1Cl)SCCN2 (stereo not shown) [D.92]"
measurement = "< 50%"

[[record]]
molecule = "Cc1cc(Cl)ccc1[C@H]1SC[C@@H](C)Nc2c1c(C)nn2C (racemic) [K.7]"
measurement = "< 50%"

[[record]]
molecule = "Cc1cc(Cl)ccc1[C@@H]1S[C@H](CCO)CNc2c1c(C)nn2C (single isomer, unassigned) [M.17]"
measurement = "< 50%"

[[record]]
molecule = "CCn1nc(-c2ccccn2)c2c1NC(=O)CCC2c1ccc(Br)cc1C (stereo not shown) [AA.1]"
measurement = "< 50%"

[[record]]
molecule = "Cn1nc([C@@H]2CCCN2)c2c1NCCSC2c1ccc(Cl)cc1Cl (mixture of isomers)"
measurement = "< 50%"

[[record]]
molecule = "Cc1cc(CCCO)ccc1[C@@H]1SC[C@H](C)Nc2c1c(-c1ccccn1)nn2C (single isomer, unassigned) [M.52]"
measurement = "< 50%"

[[record]]
molecule = "Cc1cc2c(cnn2-c2ccc(F)cc2)cc1C1SCC(=O)Nc2c1c(-c1ccccn1)nn2C (racemic)"
measurement = "> 70%"

[[record]]
molecule = "Cc1cc(C#CCCO)ccc1[C@@H]1SC[C@@H](C)Nc2c1c(-c1ccccn1)nn2C (single isomer, unassigned) [M.55]"
measurement = "< 50%"

[[record]]
molecule = "COc1cc(Cl)ccc1C1SC(C)(C)CNc2c1c(C1CC1)nn2C (stereo not shown) [D.47]"
measurement = "< 50%"

[[record]]
molecule = "CCn1nc(-c2ccccn2)c2c1NCCCC2c1ccc(Br)cc1C (stereo not shown) [BB.1]"
measurement = "> 70%"

[[record]]
molecule = "CCn1nc(-c2ccccn2)c2c1N[C@H](C)CS[C@H]2c1ccc(C#CC(C)(C)O)cc1C (single isomer, unassigned) [M.31]"
measurement = "> 70%"

[[record]]
molecule = "Cc1cc(C(=O)Nc2cccnc2C)ccc1C1SC(C)(C)CNc2c1c(C)nn2C (stereo not shown) [H.5]"
measurement = "< 50%"

[[record]]
molecule = "Cc1cc(CCCO)ccc1[C@@H]1SC[C@@H](C)Nc2c1c(-c1ccccn1)nn2C (single isomer, unassigned) [M.51]"
measurement = "< 50%"

[[record]]
molecule = "Cc1cc(Cl)ccc1[C@@H]1S[C@@H](CCO)[C@@H](C)Nc2c1c(C)nn2C (racemic)"
measurement = "> 70%"

[[record]]
molecule = "Cn1nc(-c2nccs2)c2c1NCC(C)(C)SC2c1ccc(Cl)cc1Cl (stereo not shown) [D.17]"
measurement = "< 50%"

[[record]]
molecule = "Cc1cc(C(=O)Nc2cccnc2C)ccc1[C@H]1CC[C@](O)(C(F)(F)F)Cc2c1c(-c1ccccn1)nn2C (racemic)"
measurement = "> 70%"

[[record]]
molecule = "Cc1cccc(C2SCCNc3c2c(-c2ccccn2)nn3C)c1C (stereo not shown) [D.33]"
measurement = "< 50%"

[[record]]
molecule = "Cc1cc(Cl)cnc1C1SC(C)(C)CNc2c1c(C1CC1)nn2C (stereo not shown) [D.50]"
measurement = "< 50%"

